All values here come from ChEMBL document CHEMBL1765064.

Each entry below carries its reported IC50.
# subject-of-test: Serine-protein kinase ATM (Homo sapiens, UniProt Q13315)
# Sequence (Q13315 whole entry): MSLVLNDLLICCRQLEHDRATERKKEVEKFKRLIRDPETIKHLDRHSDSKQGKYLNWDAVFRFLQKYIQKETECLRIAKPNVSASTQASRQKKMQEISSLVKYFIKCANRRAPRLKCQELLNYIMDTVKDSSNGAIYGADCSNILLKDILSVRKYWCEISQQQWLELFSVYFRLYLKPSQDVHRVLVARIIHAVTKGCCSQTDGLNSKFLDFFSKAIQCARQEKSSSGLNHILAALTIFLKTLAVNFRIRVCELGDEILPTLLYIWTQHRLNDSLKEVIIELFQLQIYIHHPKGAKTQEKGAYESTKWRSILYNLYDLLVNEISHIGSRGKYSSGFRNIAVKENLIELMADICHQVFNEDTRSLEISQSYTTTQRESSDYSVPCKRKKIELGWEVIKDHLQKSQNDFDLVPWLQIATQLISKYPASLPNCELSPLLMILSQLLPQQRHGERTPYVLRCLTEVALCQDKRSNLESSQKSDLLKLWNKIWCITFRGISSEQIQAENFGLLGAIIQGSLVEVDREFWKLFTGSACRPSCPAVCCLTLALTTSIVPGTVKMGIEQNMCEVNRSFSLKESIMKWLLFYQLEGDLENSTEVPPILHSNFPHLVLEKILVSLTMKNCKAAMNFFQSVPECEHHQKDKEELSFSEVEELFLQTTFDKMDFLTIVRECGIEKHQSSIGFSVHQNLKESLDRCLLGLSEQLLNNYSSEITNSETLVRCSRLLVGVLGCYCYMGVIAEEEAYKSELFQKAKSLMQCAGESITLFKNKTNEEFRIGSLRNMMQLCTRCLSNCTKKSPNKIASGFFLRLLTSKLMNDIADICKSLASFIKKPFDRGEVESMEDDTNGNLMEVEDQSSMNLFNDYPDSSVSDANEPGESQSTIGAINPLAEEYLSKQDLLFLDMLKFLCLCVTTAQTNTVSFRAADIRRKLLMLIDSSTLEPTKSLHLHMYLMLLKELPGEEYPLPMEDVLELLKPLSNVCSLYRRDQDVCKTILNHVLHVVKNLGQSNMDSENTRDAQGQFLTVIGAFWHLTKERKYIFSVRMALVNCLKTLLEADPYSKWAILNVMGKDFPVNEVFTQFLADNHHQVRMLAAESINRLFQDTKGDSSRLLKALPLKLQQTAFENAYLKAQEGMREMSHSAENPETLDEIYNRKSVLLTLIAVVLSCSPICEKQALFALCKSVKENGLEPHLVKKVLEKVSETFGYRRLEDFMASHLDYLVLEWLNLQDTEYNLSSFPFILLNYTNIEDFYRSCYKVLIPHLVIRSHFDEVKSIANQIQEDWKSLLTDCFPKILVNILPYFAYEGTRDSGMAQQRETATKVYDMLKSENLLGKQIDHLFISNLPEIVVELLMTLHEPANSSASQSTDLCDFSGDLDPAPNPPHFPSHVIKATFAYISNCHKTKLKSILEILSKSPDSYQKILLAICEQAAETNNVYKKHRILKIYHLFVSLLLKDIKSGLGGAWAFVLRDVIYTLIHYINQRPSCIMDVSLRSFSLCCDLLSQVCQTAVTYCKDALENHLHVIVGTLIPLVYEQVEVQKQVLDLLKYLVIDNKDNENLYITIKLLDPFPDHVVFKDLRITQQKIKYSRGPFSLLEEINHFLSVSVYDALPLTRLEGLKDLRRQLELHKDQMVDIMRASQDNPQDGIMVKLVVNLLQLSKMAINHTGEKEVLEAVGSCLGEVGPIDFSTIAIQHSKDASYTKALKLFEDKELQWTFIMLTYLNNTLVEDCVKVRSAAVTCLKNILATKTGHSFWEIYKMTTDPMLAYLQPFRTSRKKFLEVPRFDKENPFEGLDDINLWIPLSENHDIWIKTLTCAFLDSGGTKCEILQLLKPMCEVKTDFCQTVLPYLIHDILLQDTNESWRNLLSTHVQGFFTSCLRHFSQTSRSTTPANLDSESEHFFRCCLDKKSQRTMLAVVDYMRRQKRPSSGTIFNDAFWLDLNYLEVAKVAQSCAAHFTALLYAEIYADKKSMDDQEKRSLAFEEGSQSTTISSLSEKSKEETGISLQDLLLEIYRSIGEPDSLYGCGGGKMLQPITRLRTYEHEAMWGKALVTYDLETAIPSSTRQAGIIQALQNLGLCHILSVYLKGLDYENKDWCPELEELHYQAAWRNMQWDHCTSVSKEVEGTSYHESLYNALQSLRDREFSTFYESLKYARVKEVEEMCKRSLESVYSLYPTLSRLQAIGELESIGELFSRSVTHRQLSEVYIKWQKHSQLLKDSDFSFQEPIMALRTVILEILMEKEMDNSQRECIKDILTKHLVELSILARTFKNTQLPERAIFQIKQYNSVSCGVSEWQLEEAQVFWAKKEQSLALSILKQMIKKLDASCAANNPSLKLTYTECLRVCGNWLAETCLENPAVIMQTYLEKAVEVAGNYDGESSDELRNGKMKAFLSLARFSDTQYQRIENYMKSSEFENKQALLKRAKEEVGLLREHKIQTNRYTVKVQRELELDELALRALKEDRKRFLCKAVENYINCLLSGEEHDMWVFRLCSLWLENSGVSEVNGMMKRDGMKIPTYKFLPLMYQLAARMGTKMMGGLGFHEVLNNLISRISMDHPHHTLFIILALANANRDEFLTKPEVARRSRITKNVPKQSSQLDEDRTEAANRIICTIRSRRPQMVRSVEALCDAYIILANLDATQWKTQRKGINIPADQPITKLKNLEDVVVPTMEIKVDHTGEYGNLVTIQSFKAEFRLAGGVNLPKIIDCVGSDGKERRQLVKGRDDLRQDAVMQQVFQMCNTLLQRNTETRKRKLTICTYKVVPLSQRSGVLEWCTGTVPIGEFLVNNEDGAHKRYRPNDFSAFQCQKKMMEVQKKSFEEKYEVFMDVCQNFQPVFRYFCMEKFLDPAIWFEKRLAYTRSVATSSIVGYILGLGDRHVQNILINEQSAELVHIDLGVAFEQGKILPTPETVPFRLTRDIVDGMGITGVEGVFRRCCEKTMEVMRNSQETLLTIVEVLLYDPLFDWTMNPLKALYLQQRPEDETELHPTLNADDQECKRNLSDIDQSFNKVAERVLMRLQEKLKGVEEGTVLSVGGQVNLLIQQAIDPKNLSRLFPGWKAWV
# protocol-notes: Inhibition of full length recombinant ATM after 24 hrs by radiometric phosphate incorporation assay

{"columns": ["compound", "subject-of-test", "bound-operator", "IC50 (µM)"],
 "data": [
  ["N#Cc1ccc(-c2cnc(N)c(C(=O)Nc3ccccc3)n2)cc1", "Serine-protein kinase ATM (Homo sapiens, UniProt Q13315)", ">", 8],
  ["Cn1c(=O)c2c(ncn2C)n(C)c1=O", "Serine-protein kinase ATM (Homo sapiens, UniProt Q13315)", "=", 200],
  ["Nc1ncc(-c2ccncc2)nc1C(=O)Nc1ccccc1", "Serine-protein kinase ATM (Homo sapiens, UniProt Q13315)", ">", 8],
  ["CCC(C)S(=O)(=O)c1ccc(-c2cnc(N)c(C(=O)Nc3ccccc3)n2)cc1 (stereo not given)", "Serine-protein kinase ATM (Homo sapiens, UniProt Q13315)", "=", 6.6],
  ["Nc1ncc(-c2ccc(C(=O)N3CCCCC3)cc2)nc1C(=O)Nc1ccccc1", "Serine-protein kinase ATM (Homo sapiens, UniProt Q13315)", ">", 8]
]}
